test-system: VTCN1, Q7Z7D3
Sequence (Q7Z7D3 whole entry): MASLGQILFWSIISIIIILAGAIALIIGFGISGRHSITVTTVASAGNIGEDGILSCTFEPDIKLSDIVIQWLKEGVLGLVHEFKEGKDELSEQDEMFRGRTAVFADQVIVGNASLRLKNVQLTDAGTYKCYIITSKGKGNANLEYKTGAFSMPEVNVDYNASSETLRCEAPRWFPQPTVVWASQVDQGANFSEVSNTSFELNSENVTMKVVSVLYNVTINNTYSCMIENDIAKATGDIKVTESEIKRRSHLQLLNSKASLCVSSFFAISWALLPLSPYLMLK
# valid calls are active, inactive; nothing else

binder: design_605_6ebdab39-eaab-4492-afcb-164e20c3b25e_558_dldesign_0_cycle1_af2pred (protein) EEEKKLVELLHEAQELAAEAEFYSKKDKEKSKEYIEKATKKIEEAAKLAGFEPIKAKNVEDLKEVLKEAIKKASERIKERKA
class-assignment: inactive
//
binder: design_604_3e0b3014-b333-46f1-8adc-d7f0bf8048fa_2472_dldesign_0_cycle1_af2pred (protein) EEEKKLTDEAIKEAKKLFAKAGAEEDAKEVAEKARKEGVSAGLSKALSLAEYYKAEGNEKKAEAAEKAAEALADALIKIRKAKRE
class-assignment: inactive
//
binder: design_608_fd41b8f9-4da9-4c78-93ec-aaa316ed4933_2418_dldesign_0_cycle1_af2pred (protein) NKLLKEAIEALKKGIEAAKKGDLMEAQAYFTEARFYAEKYAKENPEYKEKAEKAAELAKEAIKTNGTPEAIKLAEEARKLLEEI
class-assignment: inactive
//
binder: design_601_c3fd07b4-2f34-4ad8-bd4e-2749faf628eb_592_dldesign_0_cycle1_af2pred (protein) SSADILREYRRALQEATKAAAAADPANKEEILKEGAKAREEVVDAFSESDELGKKTAEEQLAKIKARKKAAE
class-assignment: inactive
//
binder: design_598_15ab41e9-cad4-4381-8935-81f74b313fe8_1476_dldesign_0_cycle1_af2pred (protein) SEEKKKEEEKKVKEAEKLAKKAKEAAKKGDVKTAKEYYEKAKKIAKEVKKEGSKELATKAANAAQEAYQAYREAEAKA
class-assignment: inactive

// query Dear all, I need the recorded test outcome for design_609_7ee6ce64-4629-41e8-bcb4-ba0da017284d_21_dldesign_0_cycle1_af2pred (protein) SLEEELNKKKTEELIEEGIKALKEYAEKGKLEEGKAIASKKVQEAFDLGYEEGREAARKVREAYDKLAKEIEKKKA , thank you.
// result inactive
